Assay: protein stability index of a GFP-peptide fusion (GPS, HEK-293T) (PSI 1-6); higher = more stable;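 also: 24-mer peptide tiles fused after GFP, lentivirally expressed, FACS-sorted into six equal bins by GFP/DsRed ratio, decoded by Illumina sequencing, PSI is the read-weighted mean bin number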
Conditions: treatment: DMSO; c terminus: a fixed tail appended

- Item sequence: "QLSPNKHFSLRVQSRANGVKYPEL [PCDHGA10]"
  protein stability index: 3
- Item sequence: "GRGDEASEEGQNGSSPKSKTKWTK [ADD1]"
  protein stability index: 5.22
- Item sequence: "IPEKDMDERRRLLEQKTQESQKKK [ZNF207]"
  protein stability index: 5.51
- Item sequence: "EQHAGTSEGLHLAGTAGHPPSGSQ [FBF1]"
  protein stability index: 5.19
- Item sequence: "SQGQWGRAWEVDWFSLASVIFLLL [DHCR7]"
  protein stability index: 2.68
- Item sequence: "PVVKLLHNRSNNKYSYTSTSDDNL [KCTD13]"
  protein stability index: 3.82
- Item sequence: "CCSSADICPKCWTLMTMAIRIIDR [PRIM1]"
  protein stability index: 2.25
- Item sequence: "VKPENFLIGRPGNKTQQVIHIIDF [CSNK1G3]"
  protein stability index: 2.4
- Item sequence: "EQGFSQSFTQEQVADIDGQYAMTR [CTNNB1]"
  protein stability index: 4.86
- Item sequence: "LPLETARESPSFKLEPMETERSPG [ZNF263]"
  protein stability index: 5.24
- Item sequence: "FCLQKLISLHPFNPWNWGKLAEAY [C8orf76]"
  protein stability index: 2.85
- Item sequence: "LVNPLDPRNADKIRVKIADLGNAC [SRPK2]"
  protein stability index: 2.92
- Item sequence: "ETSYLEMAAGSEPESVEASPVVVE [KMT2E]"
  protein stability index: 5.38
- Item sequence: "SYHDGYGEALGRDHSEHLSGSSYR [RBMY1A1]"
  protein stability index: 4
- Item sequence: "QLRSDVCTPGGTTIYGLHALEQGG [PYCR3]"
  protein stability index: 3.69
- Item sequence: "ENGSVSSSETPPPPPPPNEINPPP [EIF5]"
  protein stability index: 5.32
- Item sequence: "ALVKEREKQLAKKEQSKELQMKLE [FAM50A]"
  protein stability index: 4.87
- Item sequence: "VNRTTRTNSTPLRAACFDGHLEVV [FEM1A]"
  protein stability index: 2.9
- Item sequence: "DEGGFTCFFRDHSYQEEAAMELKV [MOG]"
  protein stability index: 3.57
- Item sequence: "RILVGNRLHLAFKRQVPTEQARAY [RAB40C]"
  protein stability index: 2.29
- Item sequence: "NSASDPSLKDGLSDSDSELSSSEG [PSD2]"
  protein stability index: 5.69
- Item sequence: "SRCRNSYTEQELKPLTLEALGHLG [DLC1]"
  protein stability index: 2.85
- Item sequence: "CSSSTRSVLKRPERSQEESPPGST [CDC25A]"
  protein stability index: 5.17
- Item sequence: "YAPVGFCLLVLRLFLGIHVFLVSC [AUP1]"
  protein stability index: 3.14
- Item sequence: "DGLPDLGHAQDLMDGLPPGDSNQL [CTNNB1]"
  protein stability index: 5.33
- Item sequence: "NHCMLSPSSSGHLADSDTLSSAEE [C18orf25]"
  protein stability index: 5.36
- Item sequence: "KAVCGKCSSKRSSIPLMGFEFEVR [WDFY2]"
  protein stability index: 2.32
- Item sequence: "LISGVTLDNCVEVGRIANTYNLTE [KLHL13]"
  protein stability index: 2.89
- Item sequence: "LKVTGKPDAETLKVMKQPRCGVPD [MMP1]"
  protein stability index: 4.47
- Item sequence: "TYHVGKQCFFNGVFLGNKRSLSER [SPATS1]"
  protein stability index: 2.36
- Item sequence: "PEAAVLFRQMATALAHCHQHGLVL [TRIB3]"
  protein stability index: 2.92
- Item sequence: "GSNYANFELDLGKKVLNLLKGAFP [PTPN9]"
  protein stability index: 2.29
- Item sequence: "VHSDLSSIVILDNSPGAYRSHPDN [CTDNEP1]"
  protein stability index: 3.6
- Item sequence: "KASWSSLSMDEKVELYRIKFKESF [COX4I1]"
  protein stability index: 2.55
- Item sequence: "EELQNKILTATVDNANILLQIDNA [KRT17]"
  protein stability index: 4.03
- Item sequence: "SKLVESGIQFMDEPEMAVFLQNAK [TRIM55]"
  protein stability index: 3.71
- Item sequence: "QEQVAGGEAQPGLPQEDPSTSQGC [FEM1A]"
  protein stability index: 5.34
- Item sequence: "KHTVKEHECKLTQEILELIDREVD [IQUB]"
  protein stability index: 4.06
- Item sequence: "SQSILPLEHGSIYIPSSYVDSHHE [ESR2]"
  protein stability index: 3.96
- Item sequence: "SSSRDTDWVVVKEPVIKVAAIDNG [PI4K2A]"
  protein stability index: 4.25
- Item sequence: "VDALKSDKKVRTIIIRSEVPGIFC [AUH]"
  protein stability index: 2.01
- Item sequence: "DESVVMPESQMCRKFSRECEDQKQ [NEUROD6]"
  protein stability index: 5.46
- Item sequence: "VVAILAAACLLQLDGLIQQCGETM [GMCL1]"
  protein stability index: 3.23
- Item sequence: "QIYHCTKRKEEECSTTDHPYKKPY [TBX5]"
  protein stability index: 3.92
- Item sequence: "LHPDRDPGNPSLHSRFVELSEAYR [DNAJC4]"
  protein stability index: 3.37
- Item sequence: "FTFLSAKCLQGNADGDGGGGQCCR [PCDHGC5]"
  protein stability index: 2.97
- Item sequence: "VLSSTPDHSFSLELGSEVDITEGD [ATF4]"
  protein stability index: 5.32
- Item sequence: "LNVHDLDSEQNGQVTCSILAYLPF [PCDHGA10]"
  protein stability index: 2.24
- Item sequence: "VPLCSCRMETPKSREITTLANNQC [EHMT1]"
  protein stability index: 2.62
- Item sequence: "PTLSCEKYLTYDQLRKQKKKTGKS [ELOA2]"
  protein stability index: 3.98
- Item sequence: "ELVPHPETAPTTVDRTHALMKKIG [CRYL1]"
  protein stability index: 4.31
- Item sequence: "AFAQRPSSAPDLMCLSPDRKMEVE [CDC25B]"
  protein stability index: 4.97
- Item sequence: "DSEDFPQAAKQIKDGVTMAPAFRL [FSD1]"
  protein stability index: 4.24
